tested on: SR leukemia; assay: NCI-60 one-dose screen, 48 h (100 = growth as untreated, 0 = no growth, -100 = all killed); conditions: 10 µM unless noted
The panel holds about 83,000 compounds, 20% with a hit somewhere; the sample as a whole holds those more often.
Response field label: string, one of 1 (yes) (growth strictly below 20%) or 0 (no).

Here are 5 compounds together with their reported answers.
Compound: Cc1cccc(C)c1-c1cc(Cc2ccc(Cl)cc2)c(=O)[nH]n1
Class Label: 1 (yes)

Compound: Clc1nc(Cl)c2ncn(CC3(Cn4cnc5c(Cl)nc(Cl)nc54)COC3)c2n1
Class Label: 1 (yes)

Compound: C/C(=C(/c1ccccc1)c1ccc(OCC(O)CNCCN2CCOCC2)cc1)c1ccccc1 (stereo not given)
Class Label: 1 (yes)

Compound: CC1(C)NCCC[C@]2(C)[C@H]3CC=C4[C@@H]5C[C@@](C)(CO)CC[C@]5(C)CC[C@@]4(C)[C@]3(C)CC[C@@H]12
Class Label: 1 (yes)

Compound: CC(O)(CO)c1ccccc1 (stereo not given)
Class Label: 0 (no)

API: query returns whether the compound falls strictly under 20% in growth. Query: CN1C(=O)N(C)C2NC(N/N=C/c3ccccc3)=NC21 (stereo not given)
0 (no)

----------
test system: MDA-MB-435 melanoma; assay: NCI-60 one-dose screen, 48 h; details: 10 µM unless noted
About 83,000 compounds went through this panel and 20% of them were active in at least one assay; those are over-represented in the sample as a whole. Active and inactive are the calls of the source. How the source made its calls: active means growth percent below 10; inactive means the rest.
One label from this list, please: active, inactive

Some entries whose results are on file:
Compound: Cc1ccc(C2CC(c3cccc(Nc4ccncc4)c3)=NN2c2ccc(Cl)cc2)cc1 (stereo unspecified)
Class Label: active
//
Compound: COc1cc(C(=O)c2cnc(-c3ccc4cc[nH]c4c3)[nH]2)cc(OC)c1OC
Class Label: active
//
Compound: CN1C(=O)N(C)[C@H]2NC(NN)=N[C@H]21
Class Label: inactive
//
Compound: COc1cc2nc(-c3ccc(C(F)(F)F)cc3)cc(OCCN3CCCC3)c2cc1OC
Class Label: inactive

I'd appreciate the recorded outcome for CCCN=C(N)c1ccc(NC(=O)c2ccc(C(=O)Nc3ccc(C(N)=NCCC)cc3)cc2)cc1 from this test.
inactive

----------
system: A549/ATCC NSCLC; assay: NCI-60 one-dose screen, 48 h (100 = growth as untreated, 0 = no growth, -100 = all killed); conditions: 10 µM unless noted
Compounds without any hit were thinned out: in the full panel of roughly 83,000, 20% have a hit. Activity calls are given as the source filed them. Rule for the calls: active = growth percent below 10; inactive = the rest.
Please respond with reported growth for every item in the list.

Sample records with growth:
Compound: O=C(c1ccccc1)N1N=C(c2ccc(-n3ccc(C(F)(F)F)n3)cc2)CC1c1ccc[nH]1 (stereo not given)
Obs Value: 82% (inactive)

Compound: COc1cccc(CNCCN2C(=O)c3ccc4c5c(ccc(c35)C2=O)C(=O)N(CCNCc2cccc(OC)c2)C4=O)c1
Obs Value: 46.2% (inactive)

Compound: COc1ccc(NC(=O)c2sc3nc(C)c(C(=O)CCc4cccc(OC)c4)cc3c2N)cc1
Obs Value: 30.2% (inactive)

Compound: CC(C)(C)CC(C)(C)Nc1c(-c2ccc3c(c2)OCO3)nc2cnccn12
Obs Value: 82.7% (inactive)

Please look at the items below and tell me growth for each one, in order.
1. COc1nc(N)nc(-n2c(-c3ccc(C)cc3)nc3ccccc32)c1NCc1ccc(C)cc1
2. COc1cc2oc(-c3cccc(C(=O)Nc4ccc(Cl)cc4)c3)cc(=O)c2c(OC)c1OC

78.4% (inactive)
23.6% (inactive)

----------
tested on: HOP-92 NSCLC; experiment: NCI-60 one-dose screen, 48 h; conditions: 10 µM unless noted
This is part of a sample that, as a whole, favours compounds with a hit. Of some 83,000 tested, about 20% had one in any assay. The source made the active and inactive calls. Rule for the calls: active = growth percent below 10; inactive = the rest.
Mark one answer only. Choices: true for active, false for inactive

Molecule: Cc1ccc(C2CC(c3cccc(Nc4ccncc4)c3)=NN2c2ccc(Cl)cc2)cc1 (stereo unspecified)
Class Label: true
--
Molecule: COc1cc(CNC(=O)CCCCC[P+](c2ccccc2)(c2ccccc2)c2ccccc2)c(OC)c2c1OCO2
Class Label: false
--
Molecule: CN1C(=O)N(C)C2NC(N/N=C/c3ccccc3)=NC21 (stereo unspecified)
Class Label: false
--
Molecule: Cc1c2c(cc[n+]1Cc1ccc(F)cc1)c1ccc(OCc3cccc(F)c3)cc1n2Cc1cccc(F)c1
Class Label: true
--
Molecule: COc1nccnn1
Class Label: false

Please look at the following molecule next.
Write down the call the test reported for this molecule. Item: FC(F)(F)c1cccc(Oc2ccc(Nc3ncnc4ccc(OCCCN5CCOCC5)cc34)cc2Cl)c1
false

----------
Would you kindly list growth for each of these molecules?
tested on: OVCAR-5 ovarian; experiment: NCI-60 one-dose screen, 48 h (100 = growth as untreated, 0 = no growth, -100 = all killed); conditions: 10 µM unless noted
Compounds without any hit were thinned out: in the full panel of roughly 83,000, 20% have a hit.
Numbers only, in %.

Take a look at these entries with their results.
Item Smiles: COc1cc2nc(-c3ccc(C(F)(F)F)cc3)cc(OCCN3CCC(O)CC3)c2cc1OC
Tgt: OVCAR-5 ovarian
growth, %: 51
//
Item Smiles: O=C(/C=C/c1ccc[nH]1)c1ccc(-n2ccc(C(F)(F)F)n2)cc1
Tgt: OVCAR-5 ovarian
growth, %: 89

Can you give me growth for all of these, one by one?
1. C=C(C)[C@H]1CC/C(C)=C/CC[C@]2(C)O[C@H]2CC/C(COC(=O)[C@@H](OC(C)=O)[C@H](NC(=O)c2ccccc2)c2ccccc2)=C\[C@@H]1O
2. Cc1cccc(C)c1-c1cc(Cc2ccc(Cl)cc2)c(=O)[nH]n1

1. 106
2. 96.5

----------
Record form. Attribute: growth. Fill in for each entry.
test system: NCI/ADR-RES ovarian; assay: NCI-60 one-dose screen, 48 h (100 = growth as untreated, 0 = no growth, -100 = all killed); conditions: 10 µM unless noted
Compounds without any hit were thinned out: in the full panel of roughly 83,000, 20% have a hit.
One number for each entry, in %.

Before answering, review these 2 worked examples.
Item Smiles: O=C(CN1CCOCC1)Nc1ccc2ncnc(Nc3ccc(OCc4cccc(F)c4)c(Cl)c3)c2c1
Units Label: %
growth: 44.7
--
Item Smiles: COc1ccc(Cn2nc3c(c2-c2cc(OC)c(OC)c(OC)c2)-c2oncc2CC3)cc1
Units Label: %
growth: 65.9

# map each compound to its growth
1. O=C(NCCc1ccccn1)OCc1nc2nc(Cl)nc(N3CCOCC3)c2[nH]1
2. CCc1c(Nc2ccc(C)cc2)nc(N)[nH]c1=O

[16.6, 106]

# per-item lookup of growth; items listed below
1. C=C(C)[C@@H]1CC[C@]2(C(=O)NCCCN(CCC#N)CCC#N)CC[C@]3(C)[C@H](CC[C@@H]4[C@@]5(C)CCC(=O)C(C)(C)[C@@H]5CC[C@]43C)[C@@H]12
2. C=C1C(=O)O[C@H]2[C@H]1CC/C(CNC(=O)/C=C/c1ccccc1F)=C\CC[C@@]1(C)O[C@@H]21

103
77.7

Give measured growth for every item shown.
1. c1cnc2nc3c(cc2c1)oc1ccccc13
2. c1ccc(-c2nn(-c3ccccc3)[n+](-c3cccc4ccccc34)n2)cc1

100
90.1

----------
tested on: SW-620 colon; assay: NCI-60 one-dose screen, 48 h; conditions: 10 µM unless noted
Compounds without any hit were thinned out: in the full panel of roughly 83,000, 20% have a hit. The source made the active and inactive calls. Rule for the calls: active = growth percent below 10; inactive = the rest.
Answer with one of the outcomes given here: Yes = active, No = inactive

How did this test come out for NNC(=O)/C(=C\c1ccc([N+](=O)[O-])cc1)CC(=O)c1ccc(Cl)c(Cl)c1 ?
No

Fill in: this test's call for O=C(Nc1ccccc1)Oc1ccccc1-c1ccccc1 is ___
No

Assay result, entry Cc1ccc(C(c2c(O)c3cc(Br)ccc3[nH]c2=O)c2c(O)c3cc(Br)ccc3[nH]c2=O)cc1 — outcome?
No

So what was the verdict on O=S(=O)(NCCCNc1nccc(-c2c(-c3ccccc3)nc3occn23)n1)c1ccc(Cl)cc1 in this test?
No

Called result for NC(=O)c1ncn(C2OC(CO)C(O)C2O)n1 (stereo unspecified)
No

Which outcome was entered for the compound Fc1ccc(C2CC(c3cccc(Nc4ccncc4)c3)=NN2c2ccccc2)cc1 (stereo unspecified) in this test?
Yes

Hey, what did the test say about CN(C)CCCn1c2c(c3ccc(-c4ccn[nH]4)cc3c1=O)C(=O)c1ccccc1-2 ?
No

What did the test return for Cc1ccc(Nc2cc(=S)nc(N)[nH]2)cc1C ?
No

GET /call?item= COc1ccc(C(=O)c2cc3c(N)c(C(=O)Nc4cccc5ccccc45)sc3nc2C)cc1 returns the recorded outcome of this test.
No

Tell me the assay call for COc1ccc(C(=O)/C=C/c2ccc(OCc3ccccc3)c(OC)c2)cc1OC please.
No

# lookup: test call for C#Cc1cccc(NC(=O)Nc2ccc(NC(=O)CCl)cc2)c1
Yes

Status in this test for CN1CCN(CCCNc2nccc(-c3c(-c4ccc(F)c(O)c4)nc4sccn34)n2)S1(=O)=O ?
No

# fetch the recorded call for CCNC(=O)c1[nH]cc(-c2ccc(OC)cc2)c1-c1cc(OC)c(OC)c(OC)c1 here
No

# outcome recorded in this test, key = O=C(CNCCO)Nc1ccc2ncnc(Nc3ccc(OCc4cccc(F)c4)c(Cl)c3)c2c1
No

Query: recorded result category for C#CCn1cc(C=C2C(=O)NC(=S)NC2=O)c2cc(Cl)ccc21 in this test
Yes

Outcome? Nc1nc(N)nc(NCc2ccccc2)n1
No

Please indicate how the test categorized CC(=O)c1cc2c(N)c(C(=O)Nc3cncc4ccccc34)sc2nc1C .
No

Check the results log: what was the call for O=C1OC(=O)C2C1CC=CC2c1ccccc1 (stereo unspecified) ?
No

I would be grateful if you could indicate the recorded call for N#Cc1c(NC(=O)c2cccc(Br)c2)sc2c1CCCC2 .
No

I'd appreciate the recorded outcome for COc1ccc(-c2nc(N/N=C/c3cccc(O)c3)nc(N3CCOCC3)c2C#N)cc1 from this test.
No

Called result for Fc1ccc2nc3c(cc2c1)CSc1nnc(-c2ccc[nH]c2=S)n1N3
No

Hello, I am checking results. What call was entered for COc1ccc2c(Nc3ccc(NS(C)(=O)=O)cc3)c3ccccc3nc2c1 ?
Yes
